Tested on: cerebral oxidative stress induced in mice by doxorubicin
Assay: In vivo assay of cerebral oxidative stress induced in mice by doxorubicin
Conditions: % variation relative to the vehicle, healthy animals, 50 mg/kg IP x3 days (D = doxorubicin alone)
Give measured CAT/pr for each item. Keep answers brief.
Numbers only, in %.

Worked set:
{"columns": ["COMPOUND", "CAT/pr / %"],
 "data": [
  ["CC1=NN(c2ccccc2)C(=O)C1 [edaravone, reference compound]", -5.0],
  ["COc1cccc2c1C(=O)c1c(O)c3c(c(O)c1C2=O)C[C@@](O)(C(=O)CO)C[C@@H]3O[C@H]1C[C@H](N)[C@H](O)[C@H](C)O1 [D, doxorubicin, reference compound]", -13.2],
  ["CC1(C)CC(=O)C=C(NCCN2CCCCC2)C1", -7.1],
  ["CC1(C)CC(=O)C=C(N(O)Cc2ccccn2)C1", -6.2],
  ["CC1(C)CC(=O)C=C(NN2CCCCC2)C1", -6.4]
]}

State recorded CAT/pr for all listed compounds.
1. O=C1C=C(NCCN2CCCCC2)CC(c2ccccc2)C1 (stereo not shown)
2. CC1(C)CC(=O)C=C(N(O)Cc2cccnc2)C1

[-9.2, -9.3]

This collection of values is drawn from patent EP2371816A1.
